tested on: HL-60(TB) leukemia; test: NCI-60 one-dose screen, 48 h; conditions: 10 µM unless noted
The panel holds about 83,000 compounds, 20% with a hit somewhere; the sample as a whole holds those more often. The source made the active and inactive calls. Rule for the calls: active = growth percent below 10; inactive = the rest.
Respond using exactly one of the listed classes: class 1 = active, class 0 = inactive

Reference set (4 entries):
COMPOUND | ASSIGNED LABEL
O=c1oc2ccc(-c3ccc(F)cc3F)cc2c(=O)n1-c1ccc(Cl)c(C(F)(F)F)c1 | class 1
COc1cc(OC)cc(-c2cncn2-c2ccc(-c3nc4cc(OC)cc(OC)c4s3)cc2)c1 | class 0
c1ccc(-c2cn3ccnc3c(-c3ccc4ncn(C5CCCCC5)c4c3)n2)cc1 | class 0
CCc1ccccc1NC(=O)/C(C#N)=C/c1ccc(OC)cc1 | class 0

Outcome? Nc1nc(-c2cc3ccccc3o2)cc(=O)c(=O)[nH]1
class 0

Outcome? CCN1C(=O)N(CC)C2Nn3c(s/c(=C4\C(=O)N(C)c5ccccc54)c3=O)=NC21 (stereo not given)
class 0

Outcome? Nc1ccc(-c2cc3c(Nc4ccc(OCc5cccc(F)c5)c(Cl)c4)ncnc3s2)cc1
class 0

Outcome? CCCCCCCCC(C)OC(=O)c1nn(C(C)=O)c2ccccc12 (stereo not given)
class 0

###

tested on: HL-60(TB) leukemia; assay: NCI-60 one-dose screen, 48 h; conditions: 10 µM unless noted
This is part of a sample that, as a whole, favours compounds with a hit. Of some 83,000 tested, about 20% had one in any assay. Activity calls are given as the source filed them. The calls were made as follows: active = growth percent below 10; inactive = the rest.
Respond using exactly one of the listed classes: active, inactive

Reference set (2 entries):
MOLECULE | ASSIGNED LABEL
CC(Oc1ccc(C(=O)NS(=O)(=O)C(C)(C)C)cc1C(F)(F)F)c1ccc(Oc2ccccc2)cn1 (stereo not given) | inactive
CCNCc1ccncc1 | inactive

Now look at this one.
Outcome? CC(C)=CCC[C@](C)(O)[C@H]1CC[C@]2(C)[C@@H]1CC[C@@H]1[C@@]3(C)Cc4nccnc4C(C)(C)[C@@H]3CC[C@]12C
inactive

###

test system: HL-60(TB) leukemia; assay: NCI-60 one-dose screen, 48 h (100 = growth as untreated, 0 = no growth, -100 = all killed); conditions: 10 µM unless noted
About 83,000 compounds went through this panel and 20% of them were active in at least one assay; those are over-represented in the sample as a whole.
Use true (1) when the recorded growth is no lower than 90%; use false (0) when it is lower.

Reference set (3 entries):
COMPOUND | ASSIGNED LABEL
COc1ccc(Nc2ncccc2C(=O)NCc2cn(Cc3cccc(Oc4ccccc4)c3)nn2)cc1 | false (0)
COc1ccc(NC(=O)c2cccc(-c3cc(=O)c4c(O)c(OC)c(OC)cc4o3)c2)cc1 | true (1)
CC1=CC[C@@H]2C(C)(C)C(=O)CC[C@@]2(C)[C@@H]1COc1ccc2ccc(=O)oc2c1 | false (0)

Hello, I need to know if CCc1c(C)c2cc(-n3c(-c4ccc(OC)cc4)csc3=N)c(O)c(C)c2oc1=O has measured growth not below 90%. Thanks!
false (0)

Hello, I need to know if Cc1cnc(N)nc1OCCNC(=O)c1cccc(-c2ccc(S(=O)(=O)Nc3ccc4c(c3)N(C(=O)C3CC3)CCC4)cc2)c1 has measured growth not below 90%. Thanks!
false (0)

Hello, I need to know if Cc1cc(N2CCCC2)nc(N(CCCNc2ccnc3cc(Cl)ccc23)Cc2ccc3c(c2)OCO3)n1 has measured growth not below 90%. Thanks!
false (0)

Hello, I need to know if CCOC(=O)c1cc(C)[nH]c(=O)c1C#N has measured growth not below 90%. Thanks!
true (1)

Hello, I need to know if CCN(CC)CCNC(=O)c1cn2ncnc(Oc3ccc(NC(=O)Nc4ccc(Cl)c(C(F)(F)F)c4)c(F)c3)c2c1C has measured growth not below 90%. Thanks!
false (0)

Hello, I need to know if CCCCC(=O)c1ccco1 has measured growth not below 90%. Thanks!
true (1)

###

Listed below: growth values for each entry.
system: HL-60(TB) leukemia; experiment: NCI-60 one-dose screen, 48 h (100 = growth as untreated, 0 = no growth, -100 = all killed); conditions: 10 µM unless noted
Compounds without any hit were thinned out: in the full panel of roughly 83,000, 20% have a hit. Calls of active or inactive are those of the source. The calls were made as follows: active = growth percent below 10; inactive = the rest.

Any idea what its growth is? The molecule is Nc1c(C(=O)c2ccc(F)cc2)sc2nc3c(cc12)CCCC3
70.2% (inactive)

Any idea what its growth is? The molecule is O=S(=O)(c1ccccc1)n1cc2c(c1)-c1nc(Nc3ncccn3)sc1CC2
66.2% (inactive)

Any idea what its growth is? The molecule is NC(N)=N/N=C/c1ccc(-c2ccc(-c3ccc(Cl)cn3)s2)cc1
97.8% (inactive)

Any idea what its growth is? The molecule is CC(=O)N1N=C(c2ccc(Nc3nc(Nc4ccccc4)nc(Nc4ccccc4)n3)cc2)CC1c1cccc([N+](=O)[O-])c1 (stereo not given)
94.8% (inactive)

Any idea what its growth is? The molecule is COc1cc(/C=C\c2cc(/C=C\c3ccc(O)c(OC)c3)n(C(=O)Nc3ccc(C(F)(F)F)cc3)n2)ccc1O
15.2% (inactive)

###

system: HL-60(TB) leukemia; experiment: NCI-60 one-dose screen, 48 h; settings: 10 µM unless noted
About 83,000 compounds went through this panel and 20% of them were active in at least one assay; those are over-represented in the sample as a whole. Calls of active or inactive are those of the source. How the source made its calls: active means growth percent below 10; inactive means the rest.
Respond using exactly one of the listed classes: 1 (active), -1 (inactive)

Reference set (3 entries):
COMPOUND | ASSIGNED LABEL
CCOC(=O)c1cc(C(=O)c2ccc(OC)c(OC)c2)n2ccncc12 | -1
COc1ccc(/C=C2\COc3ccc(O)cc3C2=O)c(OC)c1OC | -1
O=[N+]([O-])c1ccc(C2N(Cc3ccc(Cl)cc3)CCN2Cc2ccc(Cl)cc2)cc1 | -1

Outcome? COc1ccc(C(=O)c2nc3ccccc3n2CC(=O)c2ccc(Cl)cc2)cc1
1

Outcome? CN1CCN(CC#CCn2c3c(c4ccccc42)C[C@]2(C)[C@H]4CC[C@@H]5[C@H]6[C@H]7OC(=O)[C@@]6(CCC7(C)C)CC[C@@]5(C)[C@]4(C)CC[C@H]2C3(C)C)CC1
-1

Outcome? CCNC(=S)NNC(=O)c1cc2ccc1CCc1ccc(cc1)CC2
-1

Outcome? CC(C)C1C2=C(NCCN1C(=O)Cc1ccccc1)C(C)(C)N(Cc1ccccc1)C2=O (centres undefined)
-1

Outcome? O=C(CCl)Nc1ccc2c(c1)C(=O)c1ccccc1C2=O
-1

Outcome? Cc1c(-c2nc3ccc(F)cc3c(=O)[nH]2)c2ccccc2n1C
1

###

tested on: HL-60(TB) leukemia; assay: NCI-60 one-dose screen, 48 h; conditions: 10 µM unless noted
Compounds without any hit were thinned out: in the full panel of roughly 83,000, 20% have a hit. Activity calls are given as the source filed them. How the source made its calls: active means growth percent below 10; inactive means the rest.
Respond using exactly one of the listed classes: 1 (yes) = active, 0 (no) = inactive

Reference set (4 entries):
COMPOUND | ASSIGNED LABEL
CCOc1ccccc1NC(=O)CCl | 0 (no)
CCc1ncnc2c1ccn2C(C)c1ccc(OC)c(F)c1 (stereo not given) | 0 (no)
Cn1cc(C(=O)c2nc(-c3c[nH]c4ccccc34)no2)c2ccccc21 | 0 (no)
Cc1ncc(C(=O)Nc2ccc(CN3CCN(C)CC3)c(C(F)(F)F)c2)cc1C#Cc1cnc(NC2CC2)c2ncccc12 | 0 (no)

Now look at this one.
Outcome? COc1ccc(Nc2ccnc(N3CCN(c4ccnc5cc(Cl)ccc45)CC3)n2)cc1
1 (yes)

###

system: HL-60(TB) leukemia; assay: NCI-60 one-dose screen, 48 h; settings: 10 µM unless noted
About 83,000 compounds went through this panel and 20% of them were active in at least one assay; those are over-represented in the sample as a whole. Active and inactive are the calls of the source. Rule for the calls: active = growth percent below 10; inactive = the rest.
Respond using exactly one of the listed classes: active, inactive

Reference set (5 entries):
COMPOUND | ASSIGNED LABEL
O=C1c2cc(I)ccc2Oc2cc([N+](=O)[O-])ccc2N1c1ccc(Cl)cc1F | inactive
COc1cc(C(=O)N/N=C/c2cccc([N+](=O)[O-])c2)cc(OC)c1OC | inactive
CC(C)(C)c1ccc(S(=O)(=O)N[C@H]2CC[C@H]3[C@@H]4CCc5cc(OS(=O)(=O)O)ccc5[C@H]4CC[C@]23C)cc1 | inactive
[2H]c1nc(Nc2ncc(F)c(-c3cc(F)c4nc(C)n(C(C)C)c4c3)n2)c([2H])c([2H])c1CN1CCN(C([2H])([2H])C([2H])([2H])[2H])CC1 | inactive
Cc1ccc2sc3c(NCCCNCCO)nc4ccccc4c3c(=O)c2c1 | active

Outcome? Cn1c(-c2ccc(Br)cc2)c(O)c(=O)c2c(F)cccc21
inactive

Outcome? CNC(=O)c1ccc(Nc2ncc(C(F)(F)F)c(NCc3nccnc3N(C)S(C)(=O)=O)n2)cc1
active

Outcome? COc1ccc(-c2nc(SCCC(C)C)nc(Nc3ccc(F)c(Cl)c3)c2C#N)cc1
inactive

Outcome? Cc1ccc(-c2noc(CC(=O)c3ccc([N+](=O)[O-])cc3)n2)cc1
inactive

Outcome? S=C(S)NCCc1c[nH]c2ccccc12
inactive
